Overview of reported cell viability across a group of compounds:
Test system: U2OS
ASSAY OVERVIEW: cell viability relative to DMSO; higher = less toxic
CONDITION LABEL: 72 h; 1000 nM
Give the quantity in %, number only.

Reference set (2 entries):
[[record]]
compound = "CC(=O)c1ccc2c(c1)N(CCCN1CCN(CCO)CC1)c1ccccc1S2"
measure_name = "cell viability"
unit = "%"
val = 98.2

[[record]]
compound = "CCCN(CCC)C(=O)C(CCC(=O)OCCCN1CCN(CCOC(=O)Cc2c(C)n(C(=O)c3ccc(Cl)cc3)c3ccc(OC)cc23)CC1)NC(=O)c1ccccc1 (stereo not drawn)"
measure_name = "cell viability"
unit = "%"
val = 104


Continue with the next compound.
INPUT: For the compound CN1C(C(=O)Nc2ccccn2)=C(O)c2sc(Cl)cc2S1(=O)=O , what cell viability is on record?
OUTPUT: 94.7

###

Test system: Calu-3
ASSAY OVERVIEW: cell viability relative to DMSO; higher = less toxic
CONDITION LABEL: 72 h; 1000 nM
Catalogue of cell viability readings, one per entry.
Quick reminder: number only, in %, skip the unit.

INPUT: Need cell viability of Clc1ccc(CSC(Cn2ccnc2)c2ccc(Cl)cc2Cl)cc1 (stereo not drawn) [sulconazole] , thanks.
OUTPUT: 110

###

Below: a set of entries, each annotated with reported cell viability.
Test system: HepG2
ASSAY OVERVIEW: cell viability relative to DMSO; higher = less toxic
CONDITION LABEL: 72 h; 10 nM
Use % as the unit, but write only the number.

[[record]]
compound = "CN(C)CC[C@@](O)(c1ccccc1)c1ccccc1Cl [clofedanol]"
val = 97.1

[[record]]
compound = "CC(=C(CCOC(=O)C(C)C)SSC(CCOC(=O)C(C)C)=C(C)N(C=O)Cc1cnc(C)nc1N)N(C=O)Cc1cnc(C)nc1N (stereo in doubt) [sulbutiamine]"
val = 84.5

[[record]]
compound = "O=C(O)Cc1cc2ccccc2nc1C(=O)O [CCMQ]"
val = 110

[[record]]
compound = "Cc1ncc(CSSCc2cnc(C)c(O)c2CO)c(CO)c1O [pyritinol]"
val = 97.7

[[record]]
compound = "O=C1Cc2c([nH]c3ccc(Br)cc23)-c2ncccc2N1 [1-azakenpaullone]"
val = 96.3

[[record]]
compound = "c1ccc(-c2nn3c(c2-c2ccnc4cc(OCCN5CCOCC5)ccc24)CCC3)nc1"
val = 100


INPUT: Which cell viability is listed for CCC(=O)NC[C@H](Cc1ccc(OCCc2nc(-c3ccccc3)oc2C)cc1)N/C(C)=C\C(=O)c1ccc(C(F)(F)F)cc1 [GW-6471] ?
OUTPUT: 99.5

INPUT: Please look up its cell viability: COc1ccc(/C=C/C(=O)O)cc1 [trans-4-methoxycinnamic-acid]
OUTPUT: 92

INPUT: Given the entry C[N+]1(C)[C@@H]2C[C@@H](OC(=O)C(O)(c3cccs3)c3cccs3)C[C@H]1[C@@H]1O[C@@H]12 [tiotropium] , report its measured cell viability.
OUTPUT: 93.9

INPUT: Requested field: cell viability. Item: CCCCCOC(=O)Nc1nc(=O)n([C@@H]2O[C@H](C)[C@@H](O)[C@H]2O)cc1F [capecitabine]
OUTPUT: 104

###

Test system: Calu-3
ASSAY OVERVIEW: cell viability relative to DMSO; higher = less toxic
CONDITION LABEL: 72 h; 1000 nM
MEASURE NAME: cell viability (%)
Please give a number only; it is taken to be in %.

[[record]]
molecule_smiles = "CC[C@]12CCCN3CCc4c(n(c5ccccc45)C(=O)C1)[C@@H]32"
measure_name = "cell viability"
val = 97.7

[[record]]
molecule_smiles = "CC[n+]1c(-c2ccccc2)c2cc(N)ccc2c2ccc(N)cc21"
measure_name = "cell viability"
val = 97.7

[[record]]
molecule_smiles = "CC(C)[C@@H]1CC[C@@H](C)C[C@@H]1P(=O)(c1ccccc1)c1ccccc1"
measure_name = "cell viability"
val = 93.7


INPUT: Entry under review: CC(C)(O)C(Cl)(Cl)Cl . Reported cell viability?
OUTPUT: 110

INPUT: Value lookup for cell viability; key = CCCn1c(=O)c(C)cn2nc(N)nc12
OUTPUT: 111

INPUT: Which value of cell viability has been reported for CCCCCCCCCCCCOCCOCCOCCOCCOCCOCCOCCOCCOCCO in the records?
OUTPUT: 106

INPUT: For the compound CCC[C@@H]1CC(=O)N([C@@H](CC)C(N)=O)C1 , what cell viability is on record?
OUTPUT: 100
